# experimentalTarget: Cytochrome P450 1A2 (Homo sapiens) (UniProt P05177)
# Sequence (P05177 whole entry, looked up): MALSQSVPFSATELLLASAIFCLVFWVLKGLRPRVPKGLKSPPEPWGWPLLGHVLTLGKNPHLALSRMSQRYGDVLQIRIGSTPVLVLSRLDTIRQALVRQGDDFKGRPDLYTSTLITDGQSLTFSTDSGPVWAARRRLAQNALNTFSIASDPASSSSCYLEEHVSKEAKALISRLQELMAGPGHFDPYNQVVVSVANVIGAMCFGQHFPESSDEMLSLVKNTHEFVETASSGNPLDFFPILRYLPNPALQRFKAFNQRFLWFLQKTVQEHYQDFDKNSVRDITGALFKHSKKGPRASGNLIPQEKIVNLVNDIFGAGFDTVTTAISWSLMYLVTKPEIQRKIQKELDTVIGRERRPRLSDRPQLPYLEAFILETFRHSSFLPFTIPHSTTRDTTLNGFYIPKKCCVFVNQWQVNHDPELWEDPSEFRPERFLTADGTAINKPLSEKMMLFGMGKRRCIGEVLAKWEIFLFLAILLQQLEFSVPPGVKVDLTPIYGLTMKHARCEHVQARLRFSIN
# runDescription: p450-cyp1a2 (AID 410)
# measurementParameters: recombinant CYP1A2, luciferin-ME demethylation, luminescence; series mostly up to 57 µM
# Method: The P450 gene superfamily is involved in metabolism and the clearance of xenobiotics. This assay used human CYP1A2 to measure the demethylation of luciferin 6' methyl ether (Luciferin-ME; Promega-Glo) to luciferin. The luciferin is then measured by luminescence after the addition of a luciferase detection regeant. Luciferin-ME concentration in the assay was equal to its Km for CYP1A2. NCGC Assay Protocol Summary: […]
Results filed as inconclusive are left out. Activity calls are given as the source filed them. Calls come from the whole dose curve.
// classify into label 1 for active, label 0 for inactive

COc1c(O)cc2c(c1O)[C@@H]1O[C@@H](CO)[C@@H](O)[C@@H](O)[C@@H]1OC2=O | label 0
COc1cccc(-c2nccc(NC3CCNCC3)n2)c1 | label 1

# lookup: test call for `c1cncc(CNc2nc(-c3ccc4c(c3)OCO4)nc3ccccc23)c1`
label 1

Can you look up the reported call for `Cn1cccc1C(=O)N1CCC2(CC1)CN(c1cccc(-c3ccccc3)c1)C2` for me?
label 1

// param item: `COCCn1c(=O)c(-c2cn(C)c3ccccc23)nc2cnc(Oc3ccccc3)nc21` ; yields the recorded call
label 1

# lookup: test call for `c1ccc2c(Nc3ccncc3)nc(-c3ccc4c(c3)OCO4)nc2c1`
label 1

Returns: the outcome recorded for `COCCNc1nc(-c2c(C)noc2C)nc2ccccc12` in this assay.
label 1

----------
# experimentalTarget: Dual specificity protein kinase CLK4 (Homo sapiens) (UniProt Q9HAZ1)
# Sequence (Q9HAZ1 whole entry, looked up): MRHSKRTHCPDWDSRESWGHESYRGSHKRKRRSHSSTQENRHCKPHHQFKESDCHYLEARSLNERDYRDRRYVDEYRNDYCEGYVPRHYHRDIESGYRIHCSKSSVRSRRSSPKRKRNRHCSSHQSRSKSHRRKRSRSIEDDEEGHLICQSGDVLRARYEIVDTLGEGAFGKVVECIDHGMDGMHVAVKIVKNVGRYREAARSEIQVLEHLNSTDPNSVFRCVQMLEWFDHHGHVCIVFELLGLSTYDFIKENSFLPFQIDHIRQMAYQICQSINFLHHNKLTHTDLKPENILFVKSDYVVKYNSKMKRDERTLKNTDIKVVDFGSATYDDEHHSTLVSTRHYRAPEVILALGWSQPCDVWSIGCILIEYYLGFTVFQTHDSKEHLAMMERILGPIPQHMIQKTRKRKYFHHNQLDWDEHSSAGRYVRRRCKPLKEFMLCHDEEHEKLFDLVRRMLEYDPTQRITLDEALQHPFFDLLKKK
# runDescription: qHTS Assay for Inhibitors of CDC-like Kinase 4 (ADP-Glo Assay) (AID 1771); note: nearly all actives have a fitted effect of over 70% in size
# measurementParameters: recombinant CLK4, ADP-Glo luminescence; series mostly up to 80 µM
Results filed as inconclusive are left out. Active and inactive are the calls of the source. The call rests on the fitted dose curve; in most records, active means well fitted inhibition curve with a large enough effect; inconclusive means small, poorly fitted or top-dose-only effect; inactive means flat fitted curve, though single readings scatter.
Please answer using one outcome listed in true (1) (active), false (0) (inactive)

Answered examples (3):
O=c1c(-c2cc(F)cc(F)c2)nc2cncnc2n1C1CC1 | false (0)
COc1ccc(-n2c(=O)c(CCc3ccccc3)nc3cnc(N4CCOCC4)nc32)cc1 | false (0)
N#Cc1cccc(-c2nccc(NCc3cccnc3)n2)c1 | true (1)

Now consider a different molecule.
Write down the call the test reported for this molecule. Item: `CN(C)c1ccc(-c2nc(NCCc3cnc[nH]3)c3ccccc3n2)cc1`
true (1)

----------
# experimentalTarget: Cytochrome P450 1A2 (Homo sapiens)
# runDescription: p450-cyp1a2 (AID 410)
# measurementParameters: recombinant CYP1A2, luciferin-ME demethylation, luminescence; series mostly up to 57 µM
Inconclusive results are not listed. Calls of active or inactive are those of the source. Calls follow the shape of the full dose curve.
Write down the outcome that applies. Available outcomes: label 1 (active), label 0 (inactive)

Observe how each entry below is paired with its result.
COc1ccc(C(=O)N2CCC[C@@]3(CCN(C(=O)Nc4cccc(C#N)c4)C3)C2)cc1 | label 0
Cc1noc(C)c1-c1nccc(Nc2ccc(F)cc2)n1 | label 1
CN(C)c1ncc2nc(-c3ccc(F)cc3)c(=O)n(C3CC3)c2n1 | label 1
COc1ccccc1CNc1cc(-c2cccc(C#N)c2)ncn1 | label 1
COc1ccc2[nH]cc(CCNc3ncnc4ccc(-c5ccccc5C#N)cc34)c2c1 | label 1

Pending compound:
Short answer needed: outcome of this test for `Cc1ccccc1-c1nc(NC2CC2)c2ccccc2n1` ?
label 1

Entry source: PubChem BioAssay (NCATS)
